The measured values listed here are drawn from patent US20200231684A1.

Target: T1, human IL-36R on cells (human, UniProt Q9HB29 20-575)
T1 sequence (looked up): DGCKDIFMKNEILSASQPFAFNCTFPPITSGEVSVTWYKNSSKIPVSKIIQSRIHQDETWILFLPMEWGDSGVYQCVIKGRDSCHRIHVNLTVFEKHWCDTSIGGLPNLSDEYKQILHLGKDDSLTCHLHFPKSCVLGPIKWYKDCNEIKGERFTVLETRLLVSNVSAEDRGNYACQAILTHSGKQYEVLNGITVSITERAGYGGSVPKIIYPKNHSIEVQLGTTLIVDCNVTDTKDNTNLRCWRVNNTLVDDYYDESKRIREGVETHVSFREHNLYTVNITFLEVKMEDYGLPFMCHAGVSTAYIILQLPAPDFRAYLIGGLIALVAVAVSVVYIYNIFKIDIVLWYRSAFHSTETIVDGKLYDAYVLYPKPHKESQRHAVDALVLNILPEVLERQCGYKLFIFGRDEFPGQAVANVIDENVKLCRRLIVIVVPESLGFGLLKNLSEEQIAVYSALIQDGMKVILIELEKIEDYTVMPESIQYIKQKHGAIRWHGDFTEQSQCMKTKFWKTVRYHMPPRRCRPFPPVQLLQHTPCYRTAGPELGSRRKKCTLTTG
Assay: cell-based or functional assay
observed.property: IC90, IL-6 release, NCI/ADR-RES cells, trun-IL-36g (nM)
# value in nM; strip the unit string

Return reported IC90, IL-6 release, NCI/ADR-RES cells, trun-IL-36g; argument: antibody 73C5 (antibody, V domains shown, Mouse monoclonal from hybridoma; also called 73C5C10; Mouse 73C5) VH: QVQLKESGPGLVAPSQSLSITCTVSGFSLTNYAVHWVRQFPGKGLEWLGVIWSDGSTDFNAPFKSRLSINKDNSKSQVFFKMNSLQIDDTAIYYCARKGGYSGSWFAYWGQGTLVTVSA VL: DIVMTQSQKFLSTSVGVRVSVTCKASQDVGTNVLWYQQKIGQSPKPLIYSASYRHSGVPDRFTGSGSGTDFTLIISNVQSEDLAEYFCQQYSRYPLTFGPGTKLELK 1.9

Return reported IC90, IL-6 release, NCI/ADR-RES cells, trun-IL-36g; argument: antibody 73F6 (antibody, V domains shown, Mouse monoclonal from hybridoma; also called 73F6F8; Mouse 73F6) VH: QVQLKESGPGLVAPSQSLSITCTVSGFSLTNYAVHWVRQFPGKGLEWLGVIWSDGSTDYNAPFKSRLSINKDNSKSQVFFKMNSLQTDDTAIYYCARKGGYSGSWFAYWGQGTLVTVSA VL: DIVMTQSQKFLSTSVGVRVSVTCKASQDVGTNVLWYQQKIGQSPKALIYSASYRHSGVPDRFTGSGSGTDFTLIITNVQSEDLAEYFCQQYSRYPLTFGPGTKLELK 2.2

Return reported IC90, IL-6 release, NCI/ADR-RES cells, trun-IL-36g; argument: antibody 33D10 (antibody, V domains shown, Mouse monoclonal from hybridoma; also called 33D10B12; Mouse 33D10) VH: QVQLQQSGTELLKPGASVKLSCKASGNTVTSYWMHWVKQRPGQGLEWIGEILPSTGRTNYNENFKGKAMLTVDKSSSTAYMQLSSLASEDSAVYYCTIVYFGNPWFAYWGQGTLVTVSA VL: QIVLTQSPAIMSASLGERVTMTCTASSSVSSSYLHWYQKKPGSSPKLWVYSTSNLASGVPVRFSGSGSGTSYSLTISSMEAEDAATYYCHQHHRSPVTFGSGTKLEMK 0.3
